Target: human bradykinin receptor 1 (B1R) (Homo sapiens)
Construct: expressed in transfected cells; host or cells: CHO K1 cells
Assay: Functional study on the bradykinin receptor 1 (B1R), human: FLIPR Ca2+ influx assay
Format: cell-based
Settings: test substance 10 μM; CHO K1 cells transfected with human B1R; Lys-Des-Arg9-bradykinin at EC80; Ca2+ influx (Fluo-4, FLIPR); read-out: B1R antagonism, human [10 μM] % inhibition
Label yes when inhibition at 10 µM is at or above 80%; anything below gets no.

compound	category label
CN(CCCCC(=O)NC1CCC(C(c2ccccc2)N2CCCCC2)CC1)S(=O)(=O)c1c(Cl)cc(Cl)cc1Cl (stereo not shown) [Example 6]	no
CN(C)C(c1cccc(F)c1)C1CCC(CCNC(=O)c2ccccc2N(C)S(=O)(=O)c2ccc(Cl)c(Cl)c2)CC1 (stereo not shown) [Example 44]	no
O=C(CC1C(=O)NCCN1S(=O)(=O)c1ccc(Cl)cc1Cl)NCC1CCC(C(CCc2ccccc2)N2CCCC2)CC1 (stereo not shown) [Example 57]	yes
CN(C)C(CCc1ccccc1)C1CCC(CNC(=O)CC2c3ccccc3CCN2S(=O)(=O)c2ccc(Cl)c(Cl)c2)CC1 (stereo not shown) [Example 30]	no
O=C(CC1CCCCN1S(=O)(=O)c1ccc(Cl)c(Cl)c1)NCC1CCC(C(c2ccccc2)N2CCCC2)CC1 (stereo not shown) [Example 85]	yes
CN(C)C(CCc1ccccc1)C1CCC(NC(=O)C2Cc3ccccc3N2S(=O)(=O)c2ccc(Cl)c(Cl)c2)CC1 (stereo not shown) [Example 93]	no
O=C(CC1CCCN1S(=O)(=O)c1ccc(Cl)c(Cl)c1)NC1CCC(C(c2ccccc2)N2CCOCC2)CC1 (stereo not shown) [Example 104]	no
O=C(CC1CCCN1S(=O)(=O)c1ccc(Cl)c(Cl)c1)NC1CCC(C(c2ccccc2)N2CCCC2)CC1 (stereo not shown) [Example 105]	yes
CN(C)C(c1ccccc1)C1CCC(CNC(=O)CC2CCCCN2S(=O)(=O)c2cccc(C(F)(F)F)c2)CC1 (stereo not shown) [Example 8]	no

---

Target: human bradykinin receptor 1 (B1R) (Homo sapiens, UniProt P46663)
Construct: expressed in transfected cells; host or cells: CHO K1 cells
Sequence (P46663 1-353): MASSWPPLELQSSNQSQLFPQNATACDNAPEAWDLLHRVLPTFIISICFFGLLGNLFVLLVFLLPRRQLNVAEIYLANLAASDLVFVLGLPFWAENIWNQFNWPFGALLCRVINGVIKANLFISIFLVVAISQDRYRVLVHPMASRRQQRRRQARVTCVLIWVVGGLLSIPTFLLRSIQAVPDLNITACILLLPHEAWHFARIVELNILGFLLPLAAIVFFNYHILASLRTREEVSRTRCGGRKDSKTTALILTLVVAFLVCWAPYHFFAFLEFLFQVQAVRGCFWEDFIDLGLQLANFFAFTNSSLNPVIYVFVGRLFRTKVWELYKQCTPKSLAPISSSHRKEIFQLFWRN
Assay: Functional study on the bradykinin receptor 1 (B1R), human: FLIPR Ca2+ influx assay
Assay type: cell-based
Conditions: test substance 10 μM; CHO K1 cells transfected with human B1R; Lys-Des-Arg9-bradykinin at EC80; Ca2+ influx (Fluo-4, FLIPR); read-out: B1R antagonism, human [10 μM] % inhibition

molecule	inhibition at 10 µM / %
O=C(CC1CCCCN1S(=O)(=O)c1ccc(Cl)c(Cl)c1)NCC1CCC(C(CCc2ccccc2)N2CCOCC2)CC1 (stereo not shown)	37
O=C(CC1C(=O)NCCN1S(=O)(=O)c1ccc(Cl)cc1Cl)NCC1CCC(C(CCc2ccccc2)N2CCOCC2)CC1 (stereo not shown)	104
COc1ccc(S(=O)(=O)N2CCc3ccccc3C2CC(=O)NC2CCC(C(c3ccc(F)cc3)N(C)C)CC2)cc1 (stereo not shown)	86.9
CN(C)C(c1ccc(F)cc1)C1CCC(CCNC(=O)c2ccccc2N(C)S(=O)(=O)c2ccc(Cl)c(Cl)c2)CC1 (stereo not shown)	75.7

// data source = patent US8119633B2
